- testName: Selectivity index, ratio of CC50 for human MRC5 cells to ratio of MIC99 for antitubercular activity against Mycobacterium tuberculosis H37Rv ATCC 27294 assessed as reduction in microbial growth under GAST/Fe medium
- Assay type: toxicity
- recordedConditions: read-out: Selectivity Index
readout: selectivity ratio
// return just the number, without any unit appended

Enquiry: Query selectivity ratio for C[S+]([O-])c1c(-c2ccc(-c3ccccc3)cc2)c[nH]c(=O)c1C#N (stereo unspecified)
Return: 27.8

The reported numbers originate from ChEMBL document CHEMBL4706502.
